In this section we review reported TGI values for a set of compounds.
Test system: RXF 393 renal
Assay: NCI tumour cell line growth inhibition, 48 h
Reply with just the number (in µM).

The cases that follow already have their TGI on record.
Prompt: I'd like to know its TGI. The compound in question is O=C(CC1(O)C(=O)Nc2c(Cl)ccc(Cl)c21)c1ccco1 (centres undefined)
Completion: 43.2

Prompt: Param item: COc1ccc(CC(C)=C(c2ccc(OCCN3CCCCCC3)cc2)c2ccc(OCCN3CCCCCC3)cc2)cc1
Completion: 1.05

Prompt: Param item: O=C([O-])c1cc(I)cc(I)c1[OH2+].O=C([O-])c1cc(I)cc(I)c1[OH2+].[Mn+2]
Completion: 40.2

Could you now consider this next compound?
Prompt: I'd like to know its TGI. The compound in question is CC1=C2O[C@]3(O)C=C2C(=C(O)C1=O)[C@@H]1O[C@H](CC[C@H](C)/C=C(\C)C[C@@H](C)C[C@@H]3C)[C@H](C)[C@H](O)[C@H]1C
Completion: 0.434
